System: S. aureus ATCC29213
assay.name: microbe, parasite or virus in culture
measurement.parameters: Staphylococcus aureus, ATCC29213, 18 h, read-out: Minimal inhibitory concentration
reported.endpoint: MIC (µM)
Kindly provide the numeric value in µM only, without the unit symbol.

Record CC(C)(O/N=C(\C(=O)N[C@@H]1C(=O)N2C(C(=O)[O-])=C(C[n+]3ccccc3)CS[C@H]12)c1csc(N)n1)C(=O)O [Ceftazidime, ceftazidime] , field MIC: 3

MIC recorded for this compound, CN[C@H](CC(C)C)C(=O)N[C@H]1C(=O)N[C@@H](CC(N)=O)C(=O)N[C@H]2C(=O)N[C@H]3C(=O)N[C@H](C(=O)N[C@H](C(=O)O)c4cc(O)cc(O)c4-c4cc3ccc4O)[C@H](O)c3ccc(c(Cl)c3)Oc3cc2cc(c3O[C@@H]2O[C@H](CO)[C@@H](O)[C@H](O)[C@H]2O[C@H]2C[C@](C)(N)[C@H](O)[C@H](C)O2)Oc2ccc(cc2Cl)[C@H]1O [Vancomycin, vancomycin] , is 0.25

get_value(item= CO/N=C(\C(=O)N[C@@H]1C(=O)N2C(C(=O)O)=C(CSc3nc(=O)c(=O)[nH]n3C)CS[C@H]12)c1csc(N)n1 [Ceftriaxone, ceftriaxone] , readout=MIC) returns 4

# MIC (compound: C[C@@H](O)[C@H]1C(=O)N2C(C(=O)O)=C(S[C@@H]3CN[C@H](C(=O)N(C)C)C3)[C@H](C)[C@H]12 [Meropenem, meropenem] ) is 2
